# TEST SYSTEM: PRMT5/MEP50 (Homo sapiens (Human), UniProt O14744)
# Sequence (O14744 other isoform, or with tags, fused parts or gaps): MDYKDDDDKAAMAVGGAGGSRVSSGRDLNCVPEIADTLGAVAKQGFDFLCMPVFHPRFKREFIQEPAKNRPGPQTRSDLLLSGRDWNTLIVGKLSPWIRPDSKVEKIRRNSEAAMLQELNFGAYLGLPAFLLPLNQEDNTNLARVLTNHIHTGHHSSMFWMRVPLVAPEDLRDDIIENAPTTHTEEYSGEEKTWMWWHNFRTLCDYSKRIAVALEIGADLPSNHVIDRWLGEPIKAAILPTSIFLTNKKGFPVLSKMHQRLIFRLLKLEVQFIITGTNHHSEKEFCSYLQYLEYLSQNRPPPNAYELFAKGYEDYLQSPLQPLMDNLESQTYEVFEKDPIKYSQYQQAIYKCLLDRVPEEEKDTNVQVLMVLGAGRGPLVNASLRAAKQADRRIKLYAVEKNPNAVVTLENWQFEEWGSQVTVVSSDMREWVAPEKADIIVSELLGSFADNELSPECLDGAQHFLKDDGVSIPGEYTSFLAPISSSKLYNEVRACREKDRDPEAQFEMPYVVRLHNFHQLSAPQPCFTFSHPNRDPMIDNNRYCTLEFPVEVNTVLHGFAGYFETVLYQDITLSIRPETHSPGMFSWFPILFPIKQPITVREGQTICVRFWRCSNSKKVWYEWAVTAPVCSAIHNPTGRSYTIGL
# Sequence (Q9BQA1 other isoform, or with tags, fused parts or gaps partner): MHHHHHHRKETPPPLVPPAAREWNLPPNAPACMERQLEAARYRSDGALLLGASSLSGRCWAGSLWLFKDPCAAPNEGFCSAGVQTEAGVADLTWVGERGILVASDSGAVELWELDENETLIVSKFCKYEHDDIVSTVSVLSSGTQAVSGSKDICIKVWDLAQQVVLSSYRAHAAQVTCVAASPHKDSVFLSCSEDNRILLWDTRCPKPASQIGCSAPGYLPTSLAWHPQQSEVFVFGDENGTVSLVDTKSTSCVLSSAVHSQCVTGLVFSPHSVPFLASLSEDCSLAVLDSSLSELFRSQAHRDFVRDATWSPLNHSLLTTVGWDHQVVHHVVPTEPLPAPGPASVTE
# RUN DESCRIPTION: PRMT5 Biochemical Assay (PRMT5/MEP50 enzyme assay on peptide substrate, 3H-SAM Flashplate)
pIC50: −log10 of the molar value.
ENDPOINT NAME: pIC50

CCN(c1cccc(C(=O)NCC(O)CN2CCc3ccccc3C2)c1)C1CCOCC1 (stereo not shown) :: 6.00 to 7.00
O=C(NC[C@H](O)CN1CCc2ccccc2C1)c1cncc(NC2CCN(CC(F)(F)F)C2)c1 (stereo partly shown) :: 6.00 to 7.00
CN(C)CCOc1ccc(C(=O)NC[C@H](O)CN2CCc3ccccc3C2)cc1 :: > 7.00

With those in mind, consider the next molecule.
## Task Which pIC50 is reported with PRMT5/MEP50 (Homo sapiens (Human), UniProt O14744) for this entry: `O=C(NC[C@H](O)CN1CCc2ccccc2C1)c1cc(NC2COC2)nc(N2CCOCC2)n1` ?
## Result > 7.00

====

# TEST SYSTEM: PRMT5/MEP50 (Homo sapiens (Human), UniProt O14744)
# RUN DESCRIPTION: PRMT5 Biochemical Assay (PRMT5/MEP50 enzyme assay on peptide substrate, 3H-SAM Flashplate)
# MEASUREMENT CONDITIONS: PRMT5 biochemical assay
ENDPOINT NAME: IC50

Some solved cases for reference:
Cc1cccc2c1CCN(C[C@@H](O)CNC(=O)c1cc(NC3COC3)ncn1)C2 :: 101 to 1000 nM
CSCCN1CC(Nc2cc(C(=O)NC[C@H](O)CN3CCc4ccccc4C3)ncn2)C1 :: < 100 nM
CCC(=O)N1CCN(c2nc(NC3COC3)cc(C(=O)NC[C@H](O)CN3CCc4ccccc4C3)n2)CC1 :: < 100 nM

With those in mind, consider the next compound.
## Task So what does the record say about IC50 for `COCCN(C)c1nc(NC2COC2)cc(C(=O)NC[C@H](O)CN2CCc3ccccc3C2)n1` ?
## Result < 100 nM

====

Each entry below carries its reported pIC50.
# TEST SYSTEM: PRMT5/MEP50 (Homo sapiens (Human), UniProt O14744)
# RUN DESCRIPTION: PRMT5 Biochemical Assay (PRMT5/MEP50 enzyme assay on peptide substrate, 3H-SAM Flashplate)
# MEASUREMENT CONDITIONS: PRMT5 biochemical assay
pIC50: −log10 of the molar value.

Some solved cases for reference:
CC(=O)N1CCN(c2nc(NC3COC3)cc(C(=O)NC[C@H](O)CN3CCc4ccccc4C3)n2)CC1 [Compound 497] :: > 7.00
CC(O)(CNC(=O)c1cc(NC2COC2)ncn1)CN1CCc2ccccc2C1 (stereo not shown) [Compound 646] :: 6.00 to 7.00
CC(=O)N1CCC(Nc2cc(C(=O)NC[C@H](O)CN3CCc4ccccc4C3)cc(N(C)C)n2)CC1 [Compound 610] :: > 7.00
COCCN1CCN(c2nc(NC3COC3)cc(C(=O)NC[C@H](O)CN3CCc4ccccc4C3)n2)CC1 [Compound 496] :: > 7.00

## Task Which pIC50 is reported with PRMT5/MEP50 (Homo sapiens (Human), UniProt O14744) for this entry: CC(C)CC(=O)N1CCC(Nc2cc(C(=O)NC[C@H](O)CN3CCc4ccccc4C3)ccn2)CC1 [Compound 471] ?
## Result > 7.00

## Task Now this one: O=C(NC[C@H](O)CN1CCc2ccccc2C1)c1cc(N[C@H]2C[C@H](C(=O)N3CCC3)C2)ncn1 [Compound 509]
## Result > 7.00

## Task Now this one: CC(=O)N1CCC(Nc2cc(C(=O)NCC(F)CN3CCc4ccccc4C3)ccn2)CC1 (stereo not shown) [Compound 698]
## Result > 7.00

## Task Now this one: CNC(=O)[C@H]1C[C@@H](Nc2cc(C(=O)NC[C@H](O)CN3CCc4ccccc4C3)ncn2)C1 [Compound 513]
## Result > 7.00

====

# TEST SYSTEM: PRMT5/MEP50 (Homo sapiens (Human))
# RUN DESCRIPTION: PRMT5 Biochemical Assay (PRMT5/MEP50 enzyme assay on peptide substrate, 3H-SAM Flashplate)
# MEASUREMENT CONDITIONS: PRMT5 biochemical assay
ENDPOINT NAME: IC50

Some solved cases for reference:
O=C(NC[C@H](O)CN1CCc2ccccc2C1)c1cc(N[C@H]2C[C@@H](O)C2)ncn1 :: < 100 nM
CNCCN(C)c1nc(NC2COC2)cc(C(=O)NC[C@H](O)CN2CCc3ccccc3C2)n1 :: < 100 nM
CC(C)CC(=O)N1CC(Nc2cc(C(=O)NC[C@H](O)CN3CCc4ccccc4C3)ccn2)C1 :: < 100 nM
O=C(NC[C@H](O)CN1CCc2ccccc2C1)c1ccnc(NC2CCN(C(=O)C3CCC3)CC2)c1 :: < 100 nM
O=C(NC[C@H](O)CN1CCc2ccccc2C1)c1cc(N[C@H]2CC[C@@H](C(=O)N3CCOCC3)CC2)ncn1 :: < 100 nM
CC(=O)N1CCC(Nc2cc(C(=O)NC[C@H](O)CN3CCc4ccccc4C3)nc(N(C)C)c2)CC1 :: < 100 nM

With those in mind, consider the next compound.
## Task So what does the record say about IC50 for `Cc1cc(Nc2cc(C(=O)NC[C@H](O)CN3CCc4ccccc4C3)ncn2)n[nH]1` ?
## Result < 100 nM

====

# TEST SYSTEM: PRMT5/MEP50 (Homo sapiens (Human), UniProt O14744)
# RUN DESCRIPTION: PRMT5 Biochemical Assay (PRMT5/MEP50 enzyme assay on peptide substrate, 3H-SAM Flashplate)
ENDPOINT NAME: IC50

## Task So what does the record say about IC50 for CN(C[C@H](O)CN1CCc2ccccc2C1)C(=O)c1cc(N(C)C2CCOCC2)ncn1 [Compound 313] ?
## Result < 100 nM

====

# Test system: Z-138 cell line
# RUN DESCRIPTION: Z-138 Proliferation Assay (Cell Titer Glo, 5 days)
# Format: cell-based
# MEASUREMENT CONDITIONS: Homo sapiens, 120 h; Z-138 cells, 5 days, Cell Titer Glo; read-out: Proliferation EC50
ENDPOINT NAME: EC50

CC(=O)N1CC(Nc2cncc(C(=O)NC[C@H](O)CN3CCc4ccccc4C3)c2)C1 :: 0.101 to 1 µM
CC(C)Cc1nc(NC2COC2)cc(C(=O)NC[C@H](O)CN2CCc3ccccc3C2)n1 :: < 0.1 µM
O=C(NC[C@H](O)CN1CCc2ccccc2C1)c1cc(NC2CCN(C(=O)C3CCC3)CC2)ccn1 :: < 0.1 µM
CC(=O)N1CC(Nc2cc(C(=O)NCC(C)CN3CCc4ccccc4C3)ncn2)C1 (stereo not shown) :: 0.101 to 1 µM
CC(C)C(=O)N1CCC(Nc2cc(C(=O)NC[C@H](O)CN3CCc4ccccc4C3)ccn2)CC1 :: < 0.1 µM

## Task So what does the record say about EC50 for `CN(C)[C@H]1CC[C@H](Nc2cc(C(=O)NC[C@H](O)CN3CCc4ccccc4C3)ncn2)CC1` ?
## Result 0.101 to 1 µM

## Task Now this one: `O=C(NC[C@H](O)CN1CCc2ccccc2C1)c1ccnc(NC2CN(C(=O)C3CCC3)C2)c1`
## Result < 0.1 µM

## Task Now this one: `O=C(NC[C@H](O)CN1CCc2ccccc2C1)c1cc(NC2COC2)nc(C(F)(F)F)n1`
## Result 0.101 to 1 µM

## Task Now this one: `CC(=O)N[C@H]1CC[C@H](Nc2cc(C(=O)NC[C@H](O)CN3CCc4ccccc4C3)ncn2)CC1`
## Result 0.101 to 1 µM

## Task Now this one: `COc1cc(C(=O)NC[C@H](O)CN2CCc3ccccc3C2)cc(NC2CCN(C(C)=O)CC2)n1`
## Result < 0.1 µM

## Task Now this one: `CSCCN1CCC(Nc2cc(C(=O)NC[C@H](O)CN3CCc4ccccc4C3)ncn2)CC1`
## Result 1 to 10 µM

## Task Now this one: `O=C(NC[C@H](O)CN1CCc2ccccc2C1)c1cc(NC2CCN(C(=O)C3CCC3)CC2)ncn1`
## Result < 0.1 µM

## Task Now this one: `CCCC(=O)N1CC(Nc2cc(C(=O)NC[C@H](O)CN3CCc4ccccc4C3)ncn2)C1`
## Result < 0.1 µM

## Task Now this one: `O=C(NC[C@H](O)CN1CCc2ccccc2C1)c1cc(NC2COC2)nc(N2CCC2)n1`
## Result 0.101 to 1 µM

## Task Now this one: `O=C(NC[C@H](O)CN1CCc2ccccc2C1)c1cc(O)nc(NC2CCC2)c1`
## Result 0.101 to 1 µM

## Task Now this one: `Cc1cnc(NC2CN(C)C2)cc1C(=O)NC[C@H](O)CN1CCc2ccccc2C1`
## Result > 20 µM

## Task Now this one: `CC(=O)N(C)[C@H]1CC[C@H](Nc2cc(C(=O)NC[C@H](O)CN3CCc4ccccc4C3)ncn2)CC1`
## Result < 0.1 µM

## Task Now this one: `O=C(NC[C@H](O)CN1CCc2ccccc2C1)c1cc(N[C@H]2C[C@H](N3CCOCC3)C2)ncn1`
## Result 0.101 to 1 µM

## Task Now this one: `CSCCNc1cc(C(=O)NC[C@H](O)CN2CCc3ccccc3C2)ncn1`
## Result 0.101 to 1 µM

## Task Now this one: CC(NC(=O)c1cc(NC2CCN(C)CC2)ncn1)C(O)CN1CCc2ccccc2C1 (stereo not shown)
## Result > 5 µM

## Task Now this one: `O=C(NC[C@H](O)CN1CCc2ccccc2C1)c1cnnc(NC2CCOCC2)c1`
## Result 0.101 to 1 µM

## Task Now this one: `CC(=O)[C@H]1CC[C@H](Nc2cc(C(=O)NC[C@H](O)CN3CCc4ccccc4C3)ncn2)CC1`
## Result 1 to 10 µM

## Task Now this one: `CCC(=O)N1CCC(Nc2cc(C(=O)NC[C@H](O)CN3CCc4ccccc4C3)ncn2)CC1`
## Result < 0.1 µM

## Task Now this one: `CC(C)c1nc(NC2COC2)cc(C(=O)NC[C@H](O)CN2CCc3ccccc3C2)n1`
## Result 0.101 to 1 µM

## Task Now this one: CC(=O)N1CC(Nc2cc(C(=O)NCC(F)CN3CCc4ccccc4C3)ncn2)C1 (stereo not shown)
## Result > 5 µM

## Task Now this one: `CNC(=O)[C@H]1CC[C@@H](Nc2cc(C(=O)NC[C@H](O)CN3CCc4ccccc4C3)ncn2)CC1`
## Result 0.101 to 1 µM

## Task Now this one: `CC(=O)N1CC(Nc2cc(C(=O)NC[C@H](O)CN3CCc4ccccc4C3(C)C)ncn2)C1`
## Result > 5 µM
